The measured values listed here are drawn from patent USRE35230E.

Tested on: (R)-oxynitrilase
test: Relative rates of dehydrocyanation of cyanohydrins by soluble (R)-oxynitrilase (initial rate studies)
Format: biochemical
condition: 0.21 mM cyanohydrin, dehydrocyanation relative to benzaldehyde cyanohydrin
// thresholds for Relative Rate classes: range 1 (below 0.2), range 2 (0.2 to below 1), range 3 (1 or more)

[Q] Hi there! Could you help me figure out the category for CCc1ccc(C(O)C#N)cc1 (stereo not shown) [p-Ethylbenzaldehyde cyanohydrin] please?
[A] range 1

[Q] Hi there! Could you help me figure out the category for Cc1ccc(C(O)C#N)cc1 (stereo not shown) [P-Tolualdehyde cyanohydrin] please?
[A] range 2

[Q] Hi there! Could you help me figure out the category for N#CC(O)C=Cc1ccccc1 (stereo not shown) [Cinnamaldehyde cyanohydrin] please?
[A] range 1

[Q] Hi there! Could you help me figure out the category for CC=CC(O)C#N (stereo not shown) [Crotonaldehyde cyanohydrin] please?
[A] range 2

[Q] Hi there! Could you help me figure out the category for N#CC(O)c1ccc2c(c1)OCO2 (stereo not shown) [Piperonal cyanohydrin] please?
[A] range 3

[Q] Hi there! Could you help me figure out the category for N#CC(O)c1ccco1 (stereo not shown) [Furfural cyanohydrin] please?
[A] range 3

[Q] Hi there! Could you help me figure out the category for COc1ccc(C(O)C#N)cc1 (stereo not shown) [p-Anisaldehyde cyanohydrin] please?
[A] range 1

[Q] Hi there! Could you help me figure out the category for Cc1ccc(C(O)C#N)o1 (stereo not shown) [5-Methylfurfural cyanohydrin] please?
[A] range 3

[Q] Hi there! Could you help me figure out the category for COc1cccc(C(O)C#N)c1 (stereo not shown) [m-Anisaldehyde cyanohydrin] please?
[A] range 1
